System: K-562 leukemia
Experiment: NCI tumour cell line growth inhibition, 48 h; in the data active = GI50 below about 0.43 µM; inactive = the rest
Tick one outcome: 1 = active, -1 = inactive

// return assay outcome for "Cc1ncc(CCCN(C)C)cc1Nc1ncc2c(n1)-c1ccc(C(F)(F)F)cc1NC(=S)C2" 1

// query: "O=C(/C=C\c1ccc(NCc2ccc(C(=O)O)cc2)cc1)CCl" -1

// query: "Cn1c(=O)c(Cc2ccccc2F)cc2cnc(NC3CCOCC3)nc21" -1

// query: Cc1ccc(-c2nc3ccc(Cl)cc3c(=O)n2N2C(=O)CSC2c2ccccc2Cl)cc1 (configuration not stated) -1

// query: "C[C@H](O)C(=O)N1CCC(CCn2c(Sc3cc4c(cc3Br)OCO4)nc3c(N)ncnc32)CC1" -1

// query: "CC(=O)N[C@H]1CSSC[C@@H](C(N)=O)NC(=O)[C@H](C(C)C)NC(=O)[C@H](C)NC(=O)[C@H](Cc2cnc[nH]2)NC1=O" -1

// query: C#Cc1c(I)n(C2OC(CO[Si](C)(C)C(C)(C)C)C3OC(C)(C)OC32)c(=O)[nH]c1=O (configuration not stated) -1

These data points were gathered from PubChem BioAssay (NCI).
